- Test target: BRD4 (BD1+BD2) (Homo sapiens)
- Construct: 1.8 μg/ml recombinant BRD4 (BD1+BD2 domains) protein
- Assay conditions: read-out: BRD4 Binding Potency
Listed here are molecules together with their documented IC50.

Here's what some known entries look like.
// IC50 lookup, key: Cc1sc2c(c1C)C(c1ccc(Cl)cc1)=N[C@@H](CC(=O)NCC1CN(C(=O)C3CCN(Cc4ccc(-n5c(O)nnc5-c5cc(C(C)C)c(O)cc5O)cc4)CC3)C1)c1nnc(C)n1-2
100 to 1000 nM

Thanks! And Cc1sc2c(c1C)C(c1ccc(Cl)cc1)=N[C@@H](CC(=O)N1CCC(CN3CCN(Cc4ccc(-n5c(O)nnc5-c5cc(C(C)C)c(O)cc5O)cc4)CC3)CC1)c1nnc(C)n1-2 [Compound 40, trifluoroacetic acid] ?
100 to 1000 nM

Try the molecule Cc1sc2c(c1C)C(c1ccc(Cl)cc1)=N[C@@H](CC(=O)NCC(=O)NCCOc1ccc(-n3c(S)nnc3-c3cc(C(C)C)c(O)cc3O)cc1)c1nnc(C)n1-2
100 to 1000 nM

Another molecule: Cc1sc2c(c1C)C(c1ccc(Cl)cc1)=NC(CC(=O)N1CCC(Cc3ccc(CN(C)Cc4ccc(-n5c(C(=O)NCC(F)(F)F)nnc5-c5cc(C(C)C)c(O)cc5O)cc4)cc3)CC1)c1nnc(C)n1-2 (stereo in doubt)
> 1000 nM

Can you handle Cc1sc2c(c1C)C(c1ccc(Cl)cc1)=N[C@@H](CC(=O)NCC(=O)NCC1CN(C(=O)C3CCN(Cc4ccc(-n5c(O)nnc5-c5cc(C(C)C)c(O)cc5O)cc4)CC3)C1)c1nnc(C)n1-2 next?
100 to 1000 nM

Further cases:
Which IC50 value belongs to Cc1sc2c(c1C)C(c1ccc(Cl)cc1)=N[C@@H](CC(=O)N1CCN(C(=O)C3CCN(c4ccc(-n5c(O)nnc5-c5cc(C(C)C)c(O)cc5O)cc4)CC3)CC1)c1nnc(C)n1-2 ?
> 1000 nM

Next: CCc1cc(-c2nnc(O)n2-c2ccc(CN3CCN(CC4CCN(C(=O)C[C@@H]5N=C(c6ccc(Cl)cc6)c6c(sc(C)c6C)-n6c(C)nnc65)CC4)CC3)cc2)c(O)cc1O [Compound 1]
100 to 1000 nM

Request: Cc1sc2c(c1C)C(c1ccc(Cl)cc1)=N[C@@H](CC(=O)N(C)CCOc1ccc(CN(C)Cc3ccc(-n4c(O)nnc4-c4cc(C(C)C)c(O)cc4O)cc3)cc1)c1nnc(C)n1-2
> 1000 nM

// repeat for CCc1cc(-c2nnc(C(=O)NC(C)C)n2-c2ccc(CN3CCN(CC4CCN(C(=O)C[C@@H]5N=C(c6ccc(Cl)cc6)c6c(sc(C)c6C)-n6c(C)nnc65)CC4)CC3)cc2)c(O)cc1O and report
100 to 1000 nM

* * *

Here's what we have: pIC50 numbers for HSP90α (Homo sapiens).
pIC50: −log10 of the molar value.

Query (compound): CCc1cc(-c2nnc(C(N)=O)n2-c2ccc(CN3CCN(CC4CCN(C(=O)C[C@@H]5N=C(c6ccc(Cl)cc6)c6c(sc(C)c6C)-n6c(C)nnc65)CC4)CC3)cc2)c(O)cc1O [Compound 106, trifluoroacetic acid] ; field requested: pIC50
6.00 to 7.00

And the next one, CC[C@@H](C)Nc1cc(C(=O)NC2C[C@H]3CC[C@H](C2)N3c2ccc(C(=O)Nc3ccc(CN4CCN(CC5CCN(C(=O)C[C@@H]6N=C(c7ccc(Cl)cc7)c7c(sc(C)c7C)-n7c(C)nnc76)CC5)CC4)cc3)cn2)c(C)cc1C(N)=O (stereo partly shown) ?
< 6.00

Thanks! And Cc1sc2c(c1C)C(c1ccc(Cl)cc1)=N[C@@H](CC(=O)N1CCC(CN3CCN(Cc4ccc(-n5c(O)nnc5-c5cc(C(C)C)c(O)cc5O)cc4F)CC3)CC1)c1nnc(C)n1-2 ?
6.00 to 7.00

Please answer likewise for Cc1sc2c(c1C)C(c1ccc(Cl)cc1)=N[C@@H](CC(=O)N1CCN(C(=O)C3CCN(c4ccc(-n5c(O)nnc5-c5cc(C(C)C)c(O)cc5O)cc4)CC3)CC1)c1nnc(C)n1-2
< 6.00

* * *

pIC50: −log10 of the molar value.
Measured pIC50 (HSP90α (Homo sapiens))

Please review the entries below; each comes with its answer.
Field request: pIC50 | item: Cc1nn(-c2ccc(C(N)=O)c(NCCOCCC3CCN(C(=O)C[C@@H]4N=C(c5ccc(Cl)cc5)c5c(sc(C)c5C)-n5c(C)nnc54)CC3)c2)c2c1C(=O)CC(C)(C)C2
< 6.00

Also check Cc1sc2c(c1C)C(c1ccc(Cl)cc1)=N[C@H](CC(=O)N1CCC(CN3CCN(Cc4ccc(-n5c(O)nnc5-c5cc(C(C)C)c(O)cc5O)cc4)CC3)CC1)c1nnc(C)n1-2 [Compound 5, trifluoroacetic acid]
6.00 to 7.00

Okay, and Cc1sc2c(c1C)C(c1ccc(Cl)cc1)=N[C@@H](CC(=O)NCCOCc1ccc(-n3c(O)nnc3-c3cc(C(C)C)c(O)cc3O)cc1)c1nnc(C)n1-2 ?
> 7.00

What about COc1cccc(-c2cc(C(=O)Nc3ccc(-c4ccc(OC5CCN(CC[C@@H]6N=C(c7ccc(Cl)cc7)c7c(sc(C)c7C)-n7c(C)nnc76)CC5)cc4O)cc3)ccc2OC)c1 ?
< 6.00

Quick one: Cc1sc2c(c1C)C(c1ccc(Cl)cc1)=N[C@@H](CC(=O)N1CCC(CN3CCN(Cc4ccc(-n5c(C(=O)NCCN6CCCCC6)nnc5-c5cc(C(C)C)c(O)cc5O)cc4)CC3)CC1)c1nnc(C)n1-2
6.00 to 7.00

What about Cc1sc2c(c1C)C(c1ccc(Cl)cc1)=N[C@@H](CC(=O)NCCOCCN1CCC(Cc3ccc(-n4c(O)nnc4-c4cc(C(C)C)c(O)cc4O)cc3)CC1)c1nnc(C)n1-2 ?
> 7.00

We now examine a further molecule.
Given the molecule COc1cccc(-c2cc(C(=O)Nc3ccc(-c4ccc(OC5CCN(CC[C@@H]6N=C(c7ccc(Cl)cc7)c7c(sc(C)c7C)-n7c(C)nnc76)CC5)cc4OCCN(C)C)cc3)ccc2OC)c1 [Compound 139] , what is its reported pIC50?
< 6.00

* * *

- Assay procedure: Pharmacokinetics and Tissue Distribution in the MV4-11 xenograft model
- Assay type: in vivo, mice
- Assay conditions: female, CB-17 SCID, mouse; plasma; 5 mg/kg single intravenous dose
Endpoint label: Tmax (h)
Provide the reading as a plain figure in h.

Requested field: Tmax. Item: Cc1sc2c(c1C)C(c1ccc(Cl)cc1)=N[C@@H](CC(=O)N1CCC(CN3CCN(Cc4ccc(-n5c(O)nnc5-c5cc(C(C)C)c(O)cc5O)cc4)CC3)CC1)c1nnc(C)n1-2.Cl [Compound 74]
1

* * *

- Test target: BRD4 (BD1+BD2) (Homo sapiens, UniProt O60885)
- Construct: 1.8 μg/ml recombinant BRD4 (BD1+BD2 domains) protein
- Assay conditions: read-out: BRD4 Binding Potency
Endpoint label: IC50

Consider the compound shown here: Cc1nn(-c2ccc(C(N)=O)c(NCCOCCC3CCN(C(=O)C[C@@H]4N=C(c5ccc(Cl)cc5)c5c(sc(C)c5C)-n5c(C)nnc54)CC3)c2)c2c1C(=O)CC(C)(C)C2 What is its recorded IC50?
> 1000 nM

Note: attention shifts to another entry.
Could you share which IC50 value was measured for Cc1cc(-c2nnc(C(=O)NCC(F)(F)F)n2-c2ccc(CN3CCN(CC4CCN(C(=O)C[C@@H]5N=C(c6ccc(Cl)cc6)c6c(sc(C)c6C)-n6c(C)nnc65)CC4)CC3)cc2)c(O)cc1O ?
> 1000 nM

* * *

Entries and their IC50 at 72 h values follow.
- Test system: MV4-11 cells
- Assay procedure: MV4-11 Cell Cytotoxicity Assay
- Type: cell-based, human
- Assay conditions: human, MV4-11 cells, CCK-8
Where a name gives a salt, the structure may show the parent alone.

Record excerpt, results attached:
Fill in the blank: the reported IC50 at 72 h of CCc1cc(-c2nnc(C(N)=O)n2-c2ccc(CN3CCN(CC4CCN(C(=O)C[C@@H]5N=C(c6ccc(Cl)cc6)c6c(sc(C)c6C)-n6c(C)nnc65)CC4)CC3)cc2)c(O)cc1O is ____.
< 0.1 µM

Also CCc1cc(-c2nnc(O)n2-c2ccc(CN3CCN(CC4CCN(C(=O)C[C@@H]5N=C(c6ccc(Cl)cc6)c6c(sc(C)c6C)-n6c(C)nnc65)CC4)CC3)cc2)c(O)cc1O [Compound 10, hydrochloride] , if possible.
< 0.1 µM

Can you check Cc1sc2c(c1C)C(c1ccc(Cl)cc1)=N[C@@H](CC(=O)N[C@H](C)c1cccc(CN3CCC(Cc4ccc(-n5c(C(=O)NCC(F)(F)F)nnc5-c5cc(C(C)C)c(O)cc5O)cc4)CC3)c1)c1nnc(C)n1-2 next?
< 0.1 µM

API: the following record is the query input.
Which IC50 at 72 h value belongs to CCNC(=O)c1noc(-c2cc(C(C)C)c(O)cc2O)c1-c1ccc(CN2CCN(CC3CCN(C(=O)C[C@@H]4N=C(c5ccc(Cl)cc5)c5c(sc(C)c5C)-n5c(C)nnc54)CC3)CC2)cc1 [Compound 126, hydrochloride] ?
< 0.1 µM

The origin of these recorded values is patent US20220168427A1.
